# System: NIH3T3
# test_description: Cytotoxic Profiling of Annotated Libraries Using Quantitative High-Throughput Screening (AID 1296008); further: on the % scale 0 is the no-effect control and ±100 the full control effect; nearly all actives have a fitted effect of over 60% in size
# run_parameters: Five cell lines viability, CellTiter-Glo ATP luminescence, 48-72 h; hits give low values
Results filed as inconclusive are left out.
measured_attribute: max response (%)
Answers are plain numbers, in %.

Below, 3 molecules whose answers are already recorded.
Cc1ccnc(NC(=O)C(C)c2cccc(C(=O)c3ccccc3)c2)c1 (centres undefined)
-5.36
Cc1cc(C)nc(SCC(=O)Nc2ncc(Cc3cccc4ccccc34)s2)n1
-0.172
NS(=O)(=O)c1ccc(NC(=O)Nc2ccc(F)cc2)cc1
2.88

Record max response for all entries; do not skip any.
1. COC(=O)/C=C/C=C/C(=O)OC1C=C2COC(=O)C2(O)C2(C)CCCC(C)(C)C12 (centres undefined)
2. C=C1C(=O)O[C@@H]2[C@H]1CCC(C)=C(CCC(=O)O)[C@@]2(C)O
3. CC(C)(C)Sc1c(CC(C)(C)C(=O)O)n(Cc2ccc(Cl)cc2)c2ccc(OCc3ccc4ccccc4n3)cc12

Result ::
[-4.83, -62.1, 1.54]

* * *

# test_description: Primary qHTS for inhibitors of nuclear receptor binding SET domain protein 2 (NSD2) in an isogenic RCH-ACV NSD2 p.E1099K mutant (9B) (AID 1645876); further: nearly all actives have a fitted effect of over 70% in size
# run_parameters: RCH-ACV NSD2 E1099K (9B) viability, CellTiter-Glo, 72 h; series mostly up to 44.9 µM
Inconclusive results are not listed. Calls of active or inactive are those of the source. The call rests on the fitted dose curve; in most records, active means well fitted inhibition curve with a large enough effect; inconclusive means small, poorly fitted or top-dose-only effect; inactive means flat fitted curve, though single readings scatter.
Tick one outcome: true (1) for active, false (0) for inactive

Answered cases to consult:
CC(NC(=O)Cc1cc(F)cc(F)c1)C(=O)NC1C(=O)N(C)c2ccccc2-c2ccccc21 (centres undefined)
true (1)
COc1cc2c(cc1NS(=O)(=O)c1ccc(Br)cc1C)n(C)c(=O)n2C
true (1)
O=c1cc(OCc2ccc(F)cc2)ccn1-c1ccc(OCCN2CCCC2)cc1
true (1)
COc1cc2ncnc(Oc3ccc(CC(=O)Nc4cnn(C(C)C)c4)cc3)c2cc1OC
true (1)
COc1ccccc1S(=O)(=O)Nc1ccc2c(c1)CN(C)C(=O)N2
true (1)
C=C1C(=O)O[C@@H]2[C@H]1CC(=O)[C@H](C)[C@@](O)(C(=O)/C=C/C)[C@H]2OC(=O)C(C)CC (some centres undefined)
true (1)

Query :: Identify the outcome logged in this assay for the compound shown: `O=C(Cc1cccc(OC(F)(F)F)c1)Nc1ccc(CCCCc2nnc(NC(=O)Cc3ccccn3)s2)nn1`
Result :: false (0)

Query :: Identify the outcome logged in this assay for the compound shown: Cc1noc(C)c1-c1cc(O)cc(C(O)c2ccccc2)c1 (centres undefined)
Result :: true (1)

Query :: Identify the outcome logged in this assay for the compound shown: C=C1C(=O)OC2/C=C(\CO)CC/C=C(\C=O)C(O)C(OC(=O)C(C)CC)C12 (centres undefined)
Result :: true (1)

* * *

# test_description: Primary qHTS for inhibitors of nuclear receptor binding SET domain protein 2 (NSD2) in an isogenic RCH-ACV NSD2 p.E1099K mutant (9B) (AID 1645876); further: nearly all actives have a fitted effect of over 70% in size
# run_parameters: RCH-ACV (leukaemia line) NSD2 E1099K (9B) viability, CellTiter-Glo, 72 h; series mostly up to 44.9 µM
Records with an inconclusive call do not appear. Activity calls are given as the source filed them. The call rests on the fitted dose curve; in most records, active means well fitted inhibition curve with a large enough effect; inconclusive means small, poorly fitted or top-dose-only effect; inactive means flat fitted curve, though single readings scatter.
Tick one outcome: active, inactive

Answered cases to consult:
COc1cccc(NCCC2(c3ccccc3)CC(C)(C)OC(C)(C)C2)c1
inactive
CC(O)(C(=O)C1CC1(CO)COC1OC(CO)C(O)C(O)C1O)C1C(O)CC2C3CC=C4CC(O)CC(O)C4(C)C3C(O)CC21C (stereo not given)
active

Query :: Identify the outcome logged in this assay for the compound shown: `CC(=O)OC[C@]12[C@H](OC(C)=O)C(=O)[C@@H]3[C@@H](O)[C@@]14O[C@@]3(C)COC(=O)c1cccnc1[C@@H](C)[C@H](C)C(=O)O[C@@H]([C@H](O)[C@@H]2OC(C)=O)[C@]4(C)O`
Result :: active

Query :: Identify the outcome logged in this assay for the compound shown: COc1ccc(-c2ccc3c(N4CCOCC4C)nc(N4CCOCC4C)nc3n2)cc1CO (stereo not given)
Result :: active

Query :: Identify the outcome logged in this assay for the compound shown: `Cc1ccc(S(=O)(=O)NCc2ccc(C(=O)NCCN(Cc3ccccc3)C(C)C)cc2)cc1`
Result :: active

Query :: Identify the outcome logged in this assay for the compound shown: `C=C1C(=O)O[C@@H]2[C@H]1CCC(C)=C(CCC(=O)O)[C@@]2(C)O`
Result :: active

Query :: Identify the outcome logged in this assay for the compound shown: `Cc1nc(C#Cc2ccnc(Cl)c2)c(C)n1-c1ccc(F)cc1`
Result :: active

Origin of measurements: PubChem BioAssay (NCATS)
